Each recorded value in this set is attributed to patent US4551477A.

Test: Acute toxicity (LD50) in mice
Settings: mouse, in vivo, ip
Doc: threshold 700 mg/kg (exclusive). Items with LD50 beneath it return Satisfied; others return Not satisfied.

IN: Is 700 mg/kg strictly greater than the molecule's reported LD50? molecule: CCOC(=O)CC(C[N+](C)(C)C)OC(=O)COC (stereo not shown)
OUT: Satisfied

IN: Lab log: compare recorded LD50 with 700 mg/kg; is it strictly lower for CCCOC(=O)CC(C[N+](C)(C)C)OC(=O)COC (stereo not shown) ?
OUT: Satisfied

IN: Lab note: confirm whether the reported LD50 for this molecule is below 700 mg/kg, equality not counting. molecule: CCOC(C)C(=O)OC(CC(=O)OC(C)C)C[N+](C)(C)C (stereo not shown)
OUT: Not satisfied

IN: Please let me know if COC(C)C(=O)OC(CC(=O)OC(C)C)C[N+](C)(C)C (stereo not shown) shows LD50 below 700 mg/kg.
OUT: Not satisfied

IN: Strictly below 700 mg/kg: is that where LD50 of CCOCC(=O)OC(CC(=O)OCC(C)C)C[N+](C)(C)C (stereo not shown) sits?
OUT: Not satisfied

IN: Dear reviewer, please state whether CCCOC(=O)CC(C[N+](C)(C)C)OC(=O)COCC (stereo not shown) has LD50 strictly beneath 700 mg/kg.
OUT: Satisfied
